The reader will find reported pKd values listed item by item below.
Target: IL36R
Assay: Kd (SPR)
Please treat pKd as minus the base-10 logarithm of the molar concentration.

unnamed (protein) chain 1: QVQLVQSGAEVKKPGASVKVSCKASGYSFTSSWIHWVKQAPGQGLEWMGEINPGNVRTNYNENFRNKVTMTVDTSISTAYMELSRLRSDDTAVYYCTRQTYGEPYFDYWGQGTLVTVSS chain 2: QIVLTQSPGTLSLSPGERATMTCTASSSVSSSYFHWYQQKPGQAPRLWIYRTSRLASGVPDRFSGSGSGTDFTLTISRLEPEDAATYYCHQFHRSPLTFGAGTKLEIK; 6.56

[Q] Entry unnamed (protein) chain 1: QVQLVQSGAEVKKPGASVKVSCKASGYSFTSSWIHWVKQAPGQGLEWMGEINPGNVRTNYNENFRNKVTMTVDTSISTAYMELSRLRSDDTAVYYCTRMRYGEPWFDYWGQGTLVTVSS chain 2: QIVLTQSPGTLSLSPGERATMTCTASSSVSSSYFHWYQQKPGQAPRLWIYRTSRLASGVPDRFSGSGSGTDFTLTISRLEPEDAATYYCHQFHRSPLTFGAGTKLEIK has what pKd?
[A] 7.17

[Q] Requested read-out: pKd. Entry: unnamed (protein) chain 1: QVQLVQSGAEVKKPGASVKVSCKASGYSFTSSWIHWVKQAPGQGLEWMGEINPGNVRTNYNENFRNKVTMTVDTSISTAYMELSRLRSDDTAVYYCTRVRYGYPWFDYWGQGTLVTVSS chain 2: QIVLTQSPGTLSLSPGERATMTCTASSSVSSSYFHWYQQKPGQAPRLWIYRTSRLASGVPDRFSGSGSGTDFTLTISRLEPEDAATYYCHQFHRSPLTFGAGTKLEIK
[A] 8.98
